Hello, the source for this data is patent US20230000936A1, in case you need it.

Target: MRGPRX2 (Homo sapiens, UniProt Q96LB1)
Sequence (Q96LB1 1-330): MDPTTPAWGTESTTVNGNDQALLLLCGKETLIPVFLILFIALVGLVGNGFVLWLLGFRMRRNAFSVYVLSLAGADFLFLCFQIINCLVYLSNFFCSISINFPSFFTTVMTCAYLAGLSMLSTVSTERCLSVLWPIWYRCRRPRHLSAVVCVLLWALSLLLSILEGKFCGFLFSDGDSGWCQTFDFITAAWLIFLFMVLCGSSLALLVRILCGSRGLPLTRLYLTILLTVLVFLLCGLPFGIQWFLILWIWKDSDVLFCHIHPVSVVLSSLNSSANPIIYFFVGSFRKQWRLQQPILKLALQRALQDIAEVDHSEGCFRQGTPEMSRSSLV
Test: IC50 antagonist activity screen, PathHunter β-Arrestin, MRGPRX2
Type: cell-based
Reported Conditions: maximum of IC50 curve
Overview of recorded maximum inhibition (antagonism) MRGPRX2 for various molecules
Value expressed in %; do not type the unit.

Here is how some molecules turned out for maximum inhibition (antagonism) MRGPRX2.
CCCCCCCCCc1cc(O)c(C/C=C(\C)CCC=C(C)C)c(O)c1C(=O)O : 56
C=C(C)[C@@H]1CCC(C)=C[C@H]1c1c(O)cc(CCCCCCCCC)cc1O : 96
C=C(C)[C@@H]1CCC(C)=C[C@H]1c1c(O)cc(CC)cc1O : 43
CCCCc1cc(O)c(CC=C(C)CCC=C(C)C)c(O)c1 : 85
CCCCCc1cc(O)c2c(c1)OC(C)(C)c1ccc(C)cc1-2 : 78

[in] Kindly indicate its recorded maximum inhibition (antagonism) MRGPRX2. Item: `CCCCCCc1cc(O)c(C/C=C(\C)CCC=C(C)C)c(O)c1`
[out] 66

[in] Please give the documented maximum inhibition (antagonism) MRGPRX2 of CCCCCc1cc(O)c2c(c1)OC1(C)CCC3C1C2C3(C)C (stereo not drawn)
[out] 81

[in] Please indicate maximum inhibition (antagonism) MRGPRX2 recorded for `CCCCCCCc1cc(O)c(C/C=C(\C)CCC=C(C)C)c(O)c1C(=O)O`
[out] 37

[in] Output measured maximum inhibition (antagonism) MRGPRX2 for this item: `C=C(C)[C@@H]1CCC(C)=C[C@H]1c1c(O)cc(CCC)cc1O`
[out] 59

[in] Fill in reported maximum inhibition (antagonism) MRGPRX2 for this entry: `CCCCCCCCCc1cc(O)c(C/C=C(\C)CCC=C(C)C)c(O)c1`
[out] 100

[in] Return maximum inhibition (antagonism) MRGPRX2 (reported value) for this molecule: `C=C(C)[C@@H]1CCC(C)=C[C@H]1c1c(O)cc(CCCCCC)cc1O`
[out] 98

[in] Entry `CCCCCc1cc(O)c(C/C=C(\C)CCC=C(C)C)c(O)c1` needs its maximum inhibition (antagonism) MRGPRX2 filled in; supply it.
[out] 92

* * *

Target: UniProtKB P08172
Test: GPCR reactivity screen, PathHunter β-Arrestin, agonist assay CHRM2
Assay type: cell-based
Parameters: concentration or dose not given beside the values
Reported Conditions: agonist mode; control acetylcholine
Procedure: To evaluate the role specific cannabinoid compounds play in the neurological signaling pathway for itching, a GPCR reactivity assay was performed to determine the reactivity of 19 cannabinoid compounds to each of CHRM2, EDG3, and MRGPRX2. The evaluated cannabinoid compounds were: CBN, THCV, CBDVA, CBG, CBL, CBC, CBDV, CBDA, CBD, CBGA, (+)-CBD, CBG-C4, CBD-C1, CBD-C2, CBGV, CBGA-C4, CBGVA, CBCA, and CBLA. […]
Listing of recorded CHRM2 (Agonist) percent activity by entry.
Provide only the numeric value, understood in %.

CCCCCc1cc(O)c(C/C=C(\C)CCC=C(C)C)c(O)c1 : 0

[in] Return the recorded CHRM2 (Agonist) percent activity value; entry: `CCCCCc1cc(O)c(C/C=C(\C)CCC=C(C)C)c(O)c1C(=O)O`
[out] −3

[in] Note CHRM2 (Agonist) percent activity for the molecule shown: `CCCc1cc(O)c(C/C=C(\C)CCC=C(C)C)c(O)c1C(=O)O`
[out] −4

[in] // fetch CHRM2 (Agonist) percent activity given entry `C=C(C)[C@@H]1CCC(C)=C[C@H]1c1c(O)cc(CCCCC)c(C(=O)O)c1O`
[out] 1

[in] Read off the recorded CHRM2 (Agonist) percent activity for `CCCCc1cc(O)c(CC=C(C)CCC=C(C)C)c(O)c1`
[out] 0

[in] Report measured CHRM2 (Agonist) percent activity; entry is CCCc1cc(O)c2c(c1)OC(C)(C)[C@@H]1CCC(C)=C[C@@H]21 [THCV, tetrahydrocannabivarin]
[out] 18

[in] Return the recorded CHRM2 (Agonist) percent activity value; entry: `C=C(C)[C@@H]1CCC(C)=C[C@H]1c1c(O)cc(C)cc1O`
[out] −1

[in] Give the reported value of CHRM2 (Agonist) percent activity for this record: CCCCCc1cc2c(c(O)c1C(=O)O)C=CC(C)(CCC=C(C)C)O2 (stereo not drawn)
[out] −1

* * *

Target: EDG3 (Homo sapiens)
Sequence (Q99500 whole entry): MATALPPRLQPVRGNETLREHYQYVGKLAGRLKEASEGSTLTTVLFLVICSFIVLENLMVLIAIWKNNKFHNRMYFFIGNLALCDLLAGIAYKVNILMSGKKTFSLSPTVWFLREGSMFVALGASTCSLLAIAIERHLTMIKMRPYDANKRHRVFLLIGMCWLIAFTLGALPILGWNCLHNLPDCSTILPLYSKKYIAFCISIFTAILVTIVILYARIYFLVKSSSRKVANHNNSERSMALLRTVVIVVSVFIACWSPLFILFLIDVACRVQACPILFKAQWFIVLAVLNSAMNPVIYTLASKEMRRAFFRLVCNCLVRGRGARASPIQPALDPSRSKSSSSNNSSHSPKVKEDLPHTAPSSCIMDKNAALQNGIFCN
Test: IC50 antagonist activity screen, PathHunter β-Arrestin, EDG3
Assay type: cell-based
Reported Conditions: maximum of IC50 curve
maximum inhibition (antagonism) EDG3 vs 30%: at or above is y, below is n.

Some solved cases for reference:
CCCCCCCc1cc(O)c(C/C=C(\C)CCC=C(C)C)c(O)c1 [CBG-C7, cannabigerol heptyl] : y
CCCCCCCCCc1cc(O)c(C/C=C(\C)CCC=C(C)C)c(O)c1C(=O)O [CBGA-C9, cannabigerolic acid nonyl] : y
CCCCCc1cc(O)c(C/C=C(\C)CCC=C(C)C)c(O)c1 [CBG, cannabigerol] : y

Then there is this compound:
[in] Confirm if maximum inhibition (antagonism) EDG3 reported for the compound C=C(C)[C@@H]1CCC(C)=C[C@H]1c1c(O)cc(CCCCCCC)cc1O [CBD-C7, cannabidol heptyl] is 30% or above.
[out] n

* * *

Target: UniProt:Q99500
Test: GPCR reactivity screen, PathHunter β-Arrestin, antagonist assay EDG3
Format: cell-based
Reported Conditions: antagonist mode; agonist challenge at EC80
Given measured EDG3 (Antagonist) percent inhibition, output 1 if it is greater than or equal to 20% and -1 if not.

Worked examples, 8 compounds total:
CCCCCc1cc(O)c2c(c1)OC1(C)CCC3C1C2C3(C)C (centres unmarked) : -1
CCCCCc1cc(O)c(C/C=C(\C)CCC=C(C)C)c(O)c1C(=O)O : -1
CCCc1cc(O)c(C/C=C(\C)CCC=C(C)C)c(O)c1 : 1
C=C(C)[C@@H]1CCC(C)=C[C@H]1c1c(O)cc(CCC)cc1O : 1
CCCCCc1cc(O)c2c(c1)OC(C)(C)c1ccc(C)cc1-2 : -1
CCCCCc1cc2c(c(O)c1C(=O)O)C=CC(C)(CCC=C(C)C)O2 (centres unmarked) : 1
CCCCc1cc(O)c(C/C=C(\C)CCC=C(C)C)c(O)c1C(=O)O : -1
CCCCCc1cc2c(c(O)c1C(=O)O)C1C3C(CCC3(C)O2)C1(C)C (centres unmarked) : -1

[in] Could you verify whether the entry CCCCCc1cc(O)c2c(c1)OC(C)(CCC=C(C)C)C=C2 (centres unmarked) shows EDG3 (Antagonist) percent inhibition of no less than 20%?
[out] 1

[in] Decide: EDG3 (Antagonist) percent inhibition of `CCCCCc1cc(O)c(C/C=C(\C)CCC=C(C)C)c(O)c1` >= 20%?
[out] 1

[in] Assess whether reported EDG3 (Antagonist) percent inhibition for `C=C(C)[C@@H]1CCC(C)=C[C@H]1c1c(O)cc(CCCCC)c(C(=O)O)c1O` sits at 20% or higher.
[out] -1

[in] // inclusive: EDG3 (Antagonist) percent inhibition at least 20%? input: `CCCc1cc(O)c(C/C=C(\C)CCC=C(C)C)c(O)c1C(=O)O`
[out] -1

* * *

Target: CHRM2 (Homo sapiens)
Sequence (P08172 whole entry): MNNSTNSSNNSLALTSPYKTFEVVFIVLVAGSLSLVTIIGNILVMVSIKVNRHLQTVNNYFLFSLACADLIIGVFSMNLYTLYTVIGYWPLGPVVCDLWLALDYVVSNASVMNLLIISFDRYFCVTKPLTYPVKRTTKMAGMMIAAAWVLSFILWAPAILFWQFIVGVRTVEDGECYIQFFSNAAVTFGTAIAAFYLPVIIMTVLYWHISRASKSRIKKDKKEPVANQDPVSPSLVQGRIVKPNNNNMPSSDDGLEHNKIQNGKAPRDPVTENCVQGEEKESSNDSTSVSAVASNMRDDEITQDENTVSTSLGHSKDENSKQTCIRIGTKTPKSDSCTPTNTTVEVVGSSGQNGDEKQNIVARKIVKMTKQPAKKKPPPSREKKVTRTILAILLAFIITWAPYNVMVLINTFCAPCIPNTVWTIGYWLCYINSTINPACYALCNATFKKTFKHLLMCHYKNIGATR
Test: GPCR reactivity screen, PathHunter β-Arrestin, antagonist assay CHRM2
Format: cell-based
Reported Conditions: GPCR reactivity screen
Recorded Metric: antagonist activity against CHRM2 (in words)

CCCCCc1cc(O)c2c(c1)OC1(C)CCC3C1C2C3(C)C (stereo not shown) [CBL, cannabicyclol] : antagonist activity
C=C(C)[C@@H]1CCC(C)=C[C@H]1c1c(O)cc(CCCCC)cc1O [CBD, cannabidol] : antagonist activity

* * *

Target: UniProt P08172
Test: IC50 antagonist activity screen, PathHunter β-Arrestin, CHRM2
Format: cell-based
Reported Conditions: maximum of IC50 curve
Recorded Metric: maximum inhibition (antagonism) CHRM2 (%)
Your answer is read as %, so omit the unit and give the number.

Study these solved cases before continuing.
C=C(C)[C@@H]1CCC(C)=C[C@H]1c1c(O)cc(CCCCCC)cc1O : 64
CCCCCc1cc(O)c(C/C=C(\C)CCC=C(C)C)c(O)c1 : 13
C=C(C)[C@@H]1CCC(C)=C[C@H]1c1c(O)cc(CCC)cc1O : 27
C=C(C)[C@@H]1CCC(C)=C[C@H]1c1c(O)cc(CCCCC)cc1O : 75

[in] Look up and report measured maximum inhibition (antagonism) CHRM2 for this entry: `CCCCCCCCCc1cc(O)c(C/C=C(\C)CCC=C(C)C)c(O)c1C(=O)O`
[out] 11

[in] Name the recorded maximum inhibition (antagonism) CHRM2 of the compound listed here: `C=C(C)[C@@H]1CCC(C)=C[C@H]1c1c(O)cc(CCCCCCCCC)cc1O`
[out] 90

[in] Give the measured maximum inhibition (antagonism) CHRM2 for `CCCCCCc1cc(O)c(C/C=C(\C)CCC=C(C)C)c(O)c1C(=O)O`
[out] 6

[in] Given the compound `CCCCCCCCCc1cc(O)c(C/C=C(\C)CCC=C(C)C)c(O)c1` , write its reported maximum inhibition (antagonism) CHRM2.
[out] 32
